test description: Evaluation of conversion rate to active form in buffer solution (Experimental Example 1)
Format: physicochemical
details: pH6.0, 1 hr
Measured Production rate of Alvocidib of individual entries

{"compound": "CNC(=O)O[C@@H]1CN(C)CC[C@@H]1c1c(O)cc(O)c2c(=O)cc(-c3ccccc3Cl)oc12 [Comparative Example 5, reference compound]", "Production rate of Alvocidib, %": 0.0}
{"compound": "CN1CC[C@H](c2c(OC(=O)N(C)CCN)cc(O)c3c(=O)cc(-c4ccccc4Cl)oc23)[C@H](O)C1 [Comparative Example 13, reference compound]", "Production rate of Alvocidib, %": 40.3}
{"compound": "CCNC(=O)O[C@@H]1CN(C)CC[C@@H]1c1c(O)cc(O)c2c(=O)cc(-c3ccccc3Cl)oc12 [Comparative Example 4, reference compound]", "Production rate of Alvocidib, %": 1.7}

----------
test description: Evaluation of conversion rate to active form in buffer solution (Experimental Example 1)
Assay type: physicochemical
details: pH7.4, 1 hr, 37° C., 25 umol/L in buffer solution
Structures can show the parent of a compound that is named as a salt.
Use 20% as the dividing line for Residual rate, with the line itself on the YES side and lower values as NO.

{"compound": "CCN(CC1CCCCN1)C(=O)Oc1cc(O)c2c(=O)cc(-c3ccccc3Cl)oc2c1[C@H]1CCN(C)C[C@H]1O (stereo partly drawn) [Example 7, dihydrochloride]", "category": "YES"}
{"compound": "CN1CC[C@H](c2c(OC(=O)N(C)C[C@H]3CCCCN3)cc(O)c3c(=O)cc(-c4ccccc4Cl)oc23)[C@H](O)C1", "category": "NO"}
{"compound": "CC(C)N(CC1CCCCN1)C(=O)Oc1cc(O)c2c(=O)cc(-c3ccccc3Cl)oc2c1[C@H]1CCN(C)C[C@H]1O (stereo partly drawn)", "category": "YES"}
{"compound": "CCN(CCC1CCCCN1)C(=O)Oc1cc(O)c2c(=O)cc(-c3ccccc3Cl)oc2c1[C@H]1CCN(C)C[C@H]1O (stereo partly drawn)", "category": "NO"}
{"compound": "CCCN(CC1CCCCN1)C(=O)Oc1cc(O)c2c(=O)cc(-c3ccccc3Cl)oc2c1[C@H]1CCN(C)C[C@H]1O (stereo partly drawn)", "category": "YES"}
{"compound": "CN1CC[C@H](c2c(OC(=O)N(Cc3ccccc3)CC3CCCCN3)cc(O)c3c(=O)cc(-c4ccccc4Cl)oc23)[C@H](O)C1 (stereo partly drawn)", "category": "NO"}

----------
test description: Evaluation of conversion rate to active form in buffer solution (Experimental Example 1)
Assay type: physicochemical
details: pH7.0, 3 hr, 37° C., 25 umol/L in buffer solution
API: label(entry) gives rule met if the entry's Production rate of Alvocidib is strictly smaller than 70%; on equality or larger values it gives rule not met.

{"compound": "COCCN(CC1CCCCN1)C(=O)Oc1cc(O)c2c(=O)cc(-c3ccccc3Cl)oc2c1[C@H]1CCN(C)C[C@H]1O (stereo partly shown)", "category": "rule met"}
{"compound": "CCN(C[C@H]1CCCCN1)C(=O)Oc1cc(O)c2c(=O)cc(-c3ccccc3Cl)oc2c1[C@H]1CCN(C)C[C@H]1O", "category": "rule met"}
{"compound": "CCCN(CC1CCCCN1)C(=O)Oc1cc(O)c2c(=O)cc(-c3ccccc3Cl)oc2c1[C@H]1CCN(C)C[C@H]1O (stereo partly shown)", "category": "rule not met"}
{"compound": "CCNC(=O)Oc1cc(O)c2c(=O)cc(-c3ccccc3Cl)oc2c1[C@H]1CCN(C)C[C@H]1O [Comparative Example 1, reference compound]", "category": "rule not met"}
{"compound": "CCN(CCC1CCCCN1)C(=O)Oc1cc(O)c2c(=O)cc(-c3ccccc3Cl)oc2c1[C@H]1CCN(C)C[C@H]1O (stereo partly shown)", "category": "rule not met"}
{"compound": "CCN(C[C@@H]1CCCCN1)C(=O)Oc1cc(O)c2c(=O)cc(-c3ccccc3Cl)oc2c1[C@H]1CCN(C)C[C@H]1O [Example 1, ditrifluoroacetate]", "category": "rule not met"}
{"compound": "CCCN(C[C@@H]1CCCCN1)C(=O)Oc1cc(O)c2c(=O)cc(-c3ccccc3Cl)oc2c1[C@H]1CCN(C)C[C@H]1O", "category": "rule not met"}
